These data points were gathered from BigSolDB 2.1.

conditions: in methanol, 323.65 K
ASSAY_METRIC: solubility (mole fraction)
The reply should be a number, written without any unit.

Answer with reported solubility (mole fraction) of C=CC(=O)NC(C)(C)CC(C)=O 0.823

====

conditions: in isopentanol, 297.65 K
ASSAY_METRIC: solubility (mole fraction)
The reply should be a number, written without any unit.

Answer with reported solubility (mole fraction) of C=CC(=O)NC(C)(C)CC(C)=O 0.411

====

settings: in 2-butanone, 272.05 K
ASSAY_METRIC: solubility (mole fraction)
The reply should be a number, written without any unit.

Answer with reported solubility (mole fraction) of C=CC(=O)NC(C)(C)CC(C)=O 0.229
